target: gelatinase; test: MMP particle concentration fluorescence assay, gelatinase; format: biochemical; conditions: in vitro; 15 min preincubation, 1-3 hours with substrate at room temperature, pH 7.5
quantity_kind: Ki (nM)

(P) COc1ccc(S(=O)(=O)CC(O)(CS(=O)(=O)c2ccc(-c3ccccc3)cc2)C(=O)NO)cc1 (single isomer, unassigned) [1, Enantiomer B]
(Q) COc1ccc(S(=O)(=O)CC(O)(CS(=O)(=O)c2ccc(F)cc2)C(=O)NO)cc1 (stereo not shown)
(R) CCCCc1ccc(S(=O)(=O)CC(O)(CS(=O)(=O)c2ccc(OC)cc2)C(=O)NO)cc1 (stereo not shown)
(S) COc1ccc(S(=O)(=O)CC(O)(CS(=O)(=O)c2ccc(-c3ccccc3)cc2)C(=O)NO)cc1 (racemic) [Example 1]
Task: sort_by: Ki; order: ascending; scope: items listed above Form field (ranking): labels in requested order.
Output: P, S, R, Q
(P: 0.34 nM, S: 1.9 nM, R: 13 nM, Q: 31 nM)
